We begin with a simple list: items and their reported TGI.
- System: ACHN renal
- Protocol description: NCI tumour cell line growth inhibition, 48 h

{"Compound": "Cc1cc2sc(C)[n+](CCCOS(=O)(=O)[O-])c2cc1C", "Subject of test": "ACHN renal", "Readout label": "TGI", "Result": "> 100 µM"}
{"Compound": "COc1ccc(OC2OC(COC(c3ccccc3)(c3ccc(OC)cc3)c3ccc(OC)cc3)C(O)C(O)C2O)cc1 (stereo not given)", "Subject of test": "ACHN renal", "Readout label": "TGI", "Result": "14.3 µM"}
{"Compound": "N#Cc1ccc(C(=O)/C=C/c2ccc(O)c(O)c2)cc1", "Subject of test": "ACHN renal", "Readout label": "TGI", "Result": "31.8 µM"}
{"Compound": "COc1ccc2c(c1)-c1[nH]c3ccc(OC)cc3c1CC2", "Subject of test": "ACHN renal", "Readout label": "TGI", "Result": "36.5 µM"}

The compound COc1ccc(N2C(=O)C3c4[nH]c5ccccc5c4C4CC(C)CC(C)C4C3C2=O)cc1 (stereo not given) on ACHN renal: TGI was > 100 µM

The compound CC(=O)OCC(=O)[C@@]12OC(C)(C)O[C@@H]1C[C@H]1[C@@H]3CC=C4C[C@@H](O)CC[C@]4(C)[C@H]3CC[C@@]12C on ACHN renal: TGI was > 100 µM

The compound CCN1C(=O)N(c2ccccc2)C2NC(=S)N(/N=C/C=C/c3ccccc3)C21 (stereo not given) on ACHN renal: TGI was > 100 µM

The compound CC(O)c1ccc[n+](Cc2ccccc2)c1 (stereo not given) on ACHN renal: TGI was > 400 µM

The compound COc1cc(C(O)C(=O)c2nc3ccc([N+](=O)[O-])cc3[nH]c2=O)ccc1O (stereo not given) on ACHN renal: TGI was > 100 µM

The compound O=[N+]([O-])c1cc(C2SCc3nc4ccccc4n32)ccc1Cl (stereo not given) on ACHN renal: TGI was > 100 µM

The compound O=C1C=CC[C@H](/C=C/c2ccccc2)O1 on ACHN renal: TGI was 16.6 µM

The compound COc1ccc(NC(=O)/C(=N/NC(N)=S)C2C(=O)NC(=S)NC2=O)c(OC)c1 on ACHN renal: TGI was > 100 µM

The compound FC(F)(F)c1ccc(C#Cc2ccccc2C#Cc2ccccc2)cc1 on ACHN renal: TGI was > 100 µM

The compound O=C1C=CC2(O)OCCN(CCO)C2=C1 (stereo not given) (tested in a mixture with another compound) on ACHN renal: TGI was > 100 µM

The compound S=c1ssc(Oc2ccccc2)c1Cl on ACHN renal: TGI was 16.1 µM

The compound COC(=O)c1cc2cc3c(c(O)c2c(=O)o1)O[C@@]1(Oc2c(O)c4c(c(O)c2[C@H]1OC1CC(OC)C(O)C(C)O1)C(=O)C=C(OC)C4=O)[C@H](O)C3 (stereo not given in full) on ACHN renal: TGI was 9.19 µM

The compound Cc1c(F)c(N)c2c(=O)cc(-c3ccc(N)c(F)c3)oc2c1F on ACHN renal: TGI was 50.4 µM

The compound CC(C)(C)c1ccc(-n2c3nc(=O)n(-c4ccccc4CO)c(=O)c-3cc3ccccc32)cc1 on ACHN renal: TGI was > 100 µM

The compound Cc1ccc(C)n1-c1ccccc1C1C=CN(C(=O)OC(C)(C)C)C=C1 on ACHN renal: TGI was > 100 µM

The compound N#Cc1cc(-c2nc3c(F)cccc3s2)ccc1N on ACHN renal: TGI was > 100 µM
